# tested system: IDH2 R172K (Homo sapiens, UniProt P48735, R172K)
# Sequence (P48735 40-452 R172K): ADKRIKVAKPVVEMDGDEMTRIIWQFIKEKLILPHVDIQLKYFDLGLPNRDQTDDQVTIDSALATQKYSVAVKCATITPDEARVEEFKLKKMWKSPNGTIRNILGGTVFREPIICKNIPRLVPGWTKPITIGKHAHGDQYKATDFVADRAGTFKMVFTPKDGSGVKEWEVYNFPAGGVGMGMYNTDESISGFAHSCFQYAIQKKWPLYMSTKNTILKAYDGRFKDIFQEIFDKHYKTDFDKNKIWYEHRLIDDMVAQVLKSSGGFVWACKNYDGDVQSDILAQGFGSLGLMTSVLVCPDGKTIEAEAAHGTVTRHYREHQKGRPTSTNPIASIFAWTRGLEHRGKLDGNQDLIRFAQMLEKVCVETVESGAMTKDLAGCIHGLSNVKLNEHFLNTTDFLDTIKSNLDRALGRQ
# experiment summary: IDH2 R172K enzymatic assay (NADPH cofactor depletion, diaphorase/resazurin readout)
# conditions: read-out: Enz R172K
# Method: Compounds are assayed for IDH2 R172K inhibitory activity through a cofactor depletion assay. […] The reaction is terminated by the addition of a second enzyme, diaphorase, and a corresponding substrate, resazurin. […]
pIC50: −log10 of the molar value.
Overview of recorded pIC50 for various compounds

Study these solved cases before continuing.
compound: CC(C)Nc1nc(Nc2ccccc2)nc(-c2cccc(Cl)n2)n1
tested system: IDH2 R172K (Homo sapiens, UniProt P48735, R172K)
result: > 7.00
--
compound: CC(C)Nc1nc(Nc2cncc(C(F)(F)F)c2)nc(-c2nccc(C(F)(F)F)n2)n1
tested system: IDH2 R172K (Homo sapiens, UniProt P48735, R172K)
result: 6.00 to 7.00

Fill in reported pIC50 for this entry: COc1ccc(Nc2nc(NC(C)C)nc(-c3ccccc3)n2)cc1
5.00 to 6.00

Report pIC50 for CC(C)Nc1nc(Cc2ccccc2)nc(Nc2ccccc2)n1
5.00 to 6.00

Return value of pIC50 for input CC(C)(C)Nc1nc(Nc2ccnc(C3CC3)c2)nc(-c2cccc(C(F)(F)F)n2)n1 , no commentary.
> 7.00

Read off the recorded pIC50 for CC(C)Nc1nc(Nc2ccccc2)nc(-c2ccc(F)cc2F)n1
6.00 to 7.00

Specify measured pIC50 for CC(Nc1nc(Nc2ccncc2)nc(-c2ccccc2)n1)C1CC1 (stereo not shown) .
6.00 to 7.00

Provide only the value of recorded pIC50 for CC(F)(F)c1cccc(-c2nc(NCC3CC3)nc(Nc3cc(F)cc(F)c3)n2)n1
> 7.00

###

// reported IC50 for each item listed
# Test system: U87MG pLVX-IDH2 R140Q-neo cells
# experiment summary: U87MG pLVX-IDH2 R140Q-neo cell based assay, 2-HG in media by LC-MS at 48 hours
# conditions: Homo sapiens, U-87 MG
# Experimental: U87MG pLVX-IDH2 R140Q-neo cells are grown in T125 flasks in DMEM containing 10% FBS, 1× penicillin/streptomycin and 500 μg/mL G418. They are harvested by trypsin and seeded into 96 well white bottom plates at a density of 5000 cell/well in 100 μl/well in DMEM with 10% FBS. […] At 48 hours, 100 ul of media is removed from each well and analyzed by LC-MS for 2-HG concentrations. […] The plate is then read for luminescence with an integration time of 500 ms to determine compound effects on growth inhibition.

# annotated cases, reported IC50 shown
structure as smiles: CC(C)(O)CNc1nc(Nc2ccnc(F)c2)nc(-c2ccccc2F)n1
IC50: 0.1 to 1 µM
//
structure as smiles: CC(C)Nc1nc(Nc2ccnc(C(F)(F)F)c2)nc(-c2cccc(O)c2F)n1
IC50: < 0.1 µM
//
structure as smiles: Cc1ccccc1-c1nc(Nc2ccccc2)nc(NC(C)C)n1
IC50: 0.1 to 1 µM

Please report the measured IC50 for Clc1cccc(Nc2nc(NC3CCOCC3)nc(-c3ccccc3)n2)c1
< 0.1 µM

Find the measured IC50 of CC(C)CNc1nc(Nc2cncc(F)c2)nc(-c2cccc(Cl)n2)n1 and report it.
< 0.1 µM

###

Listing of entries alongside the reported IC50.
# Test system: U87MG pLVX-IDH2 R140Q-neo cells
# experiment summary: U87MG pLVX-IDH2 R140Q-neo cell based assay, 2-HG in media by LC-MS at 48 hours
# conditions: Homo sapiens, U-87 MG

Look over these answered cases.
compound: CC(C)Nc1nc(Nc2cccc(S(=O)(=O)N3CCC3)c2)nc(-c2cccc(Cl)n2)n1
outcome measure: IC50
result: < 0.1 µM

compound: CC(C)(C)CNc1nc(Nc2cncc(C#N)c2)nc(-c2cccc(Cl)n2)n1
outcome measure: IC50
result: 0.1 to 1 µM

compound: Clc1cncc(Nc2nc(NC3CCC3)nc(-c3ccccn3)n2)c1
outcome measure: IC50
result: < 0.1 µM

compound: CC(CO)CNc1nc(Nc2ccnc(C(F)(F)F)c2)nc(-c2cccc(C(F)(F)F)n2)n1 (centres unmarked)
outcome measure: IC50
result: < 0.1 µM

Given CC(C)Nc1nc(Nc2cccc(S(C)(=O)=O)c2)nc(-c2nc(C(F)(F)F)ccc2F)n1 , respond with its IC50.
< 0.1 µM

Respond only with IC50 recorded for Fc1ccc(Nc2nc(NC3C4COCC43)nc(-c3cccc(Cl)n3)n2)cn1 (centres unmarked)
< 0.1 µM

Entry CC(C)Nc1nc(Nc2cccc(S(=O)(=O)NC3CC3)c2)nc(-c2ccccc2)n1 needs its IC50 filled in; supply it.
< 0.1 µM

Item Fc1cncc(Nc2nc(NC3CCC3)nc(-c3cccc(Cl)n3)n2)c1 : provide IC50
< 0.1 µM

Report measured IC50; entry is CC(Nc1nc(Nc2ccncc2)nc(-c2ccccc2)n1)C(C)(C)C (centres unmarked)
< 0.1 µM

###

# tested system: IDH2 R140Q (Homo sapiens, UniProt P48735, R140Q)
# Sequence (P48735 40-452 R140Q): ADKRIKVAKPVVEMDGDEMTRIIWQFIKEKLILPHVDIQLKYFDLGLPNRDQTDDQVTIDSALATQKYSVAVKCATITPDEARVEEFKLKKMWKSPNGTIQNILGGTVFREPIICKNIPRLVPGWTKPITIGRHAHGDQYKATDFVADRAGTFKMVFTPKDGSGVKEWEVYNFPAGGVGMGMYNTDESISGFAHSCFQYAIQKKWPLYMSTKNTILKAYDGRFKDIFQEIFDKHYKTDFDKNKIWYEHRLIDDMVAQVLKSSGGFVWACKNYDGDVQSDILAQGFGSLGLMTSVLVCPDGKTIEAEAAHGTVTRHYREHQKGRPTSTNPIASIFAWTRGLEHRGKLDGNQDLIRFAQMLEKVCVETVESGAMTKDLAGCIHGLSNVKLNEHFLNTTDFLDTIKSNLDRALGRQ
# experiment summary: IDH2 R140Q enzymatic assay (cofactor depletion, similar format)
# Assay type: biochemical
# conditions: read-out: Enz R140Q
pIC50: −log10 of the molar value.
outcome measure: pIC50

compound: CC(C)Nc1nc(Nc2ccnc(C(F)(F)F)c2)nc(-c2cccc(C(F)(F)F)n2)n1
outcome measure: pIC50
result: 6.00 to 7.00
//
compound: c1ccc(-c2nc(Nc3ccncc3)nc(NC3CCCOC3)n2)cc1 (centres unmarked)
outcome measure: pIC50
result: < 5.00
//
compound: CC(C)Nc1nc(Nc2ccccc2)nc(-c2cccc(C#N)c2)n1
outcome measure: pIC50
result: 6.00 to 7.00
//
compound: CC(C)(C)Nc1nc(Nc2cc(Cl)cc(S(C)(=O)=O)c2)nc(-c2cccc(C(C)(F)F)n2)n1
outcome measure: pIC50
result: 6.00 to 7.00
//
compound: CC(C)Nc1nc(Nc2cncc(C(F)(F)F)c2)nc(-c2cccc(N)n2)n1
outcome measure: pIC50
result: 6.00 to 7.00

State pIC50 on IDH2 R140Q (Homo sapiens, UniProt P48735, R140Q). Entry: COCCCNc1nc(Nc2ccnc(C(F)(F)F)c2)nc(-c2cccc(C(F)(F)F)n2)n1
6.00 to 7.00

Output reported pIC50 of the compound Fc1cncc(Nc2nc(NC3CCC3)nc(-c3ccccc3F)n2)c1 on IDH2 R140Q (Homo sapiens, UniProt P48735, R140Q).
> 7.00

System IDH2 R140Q (Homo sapiens, UniProt P48735, R140Q). Read-out pIC50. Item FC(F)(F)c1cc(Nc2nc(NC3COC3)nc(-c3ccccn3)n2)ccn1 . Report value.
6.00 to 7.00

Find the measured pIC50 of CC(C)Nc1nc(Nc2ccnc(C(F)F)c2)nc(-c2cccc(C(F)F)n2)n1 with IDH2 R140Q (Homo sapiens, UniProt P48735, R140Q) as test system.
6.00 to 7.00

Recall the reported pIC50 of O[C@@H]1CC[C@@H](Nc2nc(Nc3ccccc3)nc(-c3ccccc3)n2)C1 when tested on IDH2 R140Q (Homo sapiens, UniProt P48735, R140Q).
> 7.00

Name the value of pIC50 reported for CC(C)CNc1nc(Nc2cncc(F)c2)nc(-c2ccccc2F)n1 when tested on IDH2 R140Q (Homo sapiens, UniProt P48735, R140Q).
> 7.00

Identify measured pIC50 obtained with IDH2 R140Q (Homo sapiens, UniProt P48735, R140Q) for CC(C)Nc1nc(Nc2ccnc(C(C)(C)C#N)c2)nc(-c2cccc(C(F)(F)F)n2)n1 .
6.00 to 7.00

Please tell me the measured pIC50 for CC(C)Nc1nc(Nc2ccnc(C(C)(C)C#N)c2)nc(-c2cccc(C(C)(F)F)n2)n1 ; system: IDH2 R140Q (Homo sapiens, UniProt P48735, R140Q).
6.00 to 7.00

State pIC50 on IDH2 R140Q (Homo sapiens, UniProt P48735, R140Q). Entry: CC(C)Nc1nc(Nc2ccccc2)nc(-c2ccc(C#N)cc2)n1
6.00 to 7.00

###

# Test system: U87MG pLVX-IDH2 R140Q-neo cells
# experiment summary: U87MG pLVX-IDH2 R140Q-neo cell based assay, 2-HG in media by LC-MS at 48 hours
# conditions: Homo sapiens, U-87 MG
Here, each record is paired with measured IC50 data.

# count of solved cases: 10
compound: COC1(c2cc(Nc3nc(NC(C)C)nc(-c4cccc(C(F)(F)F)n4)n3)ccn2)CC1
outcome measure: IC50
result: < 0.1 µM
--
compound: CC(C)Nc1nc(Nc2ccccc2)nc(-c2cc(Cl)ccn2)n1
outcome measure: IC50
result: 0.1 to 1 µM
--
compound: CC(C)Nc1nc(Nc2ccnc(C(C)(F)F)c2)nc(-c2cccc(C(C)(F)F)n2)n1
outcome measure: IC50
result: < 0.1 µM
--
compound: CC(C)Nc1nc(Nc2ccnc(C(F)(F)F)c2)nc(-c2cc(O)cc(F)c2)n1
outcome measure: IC50
result: < 0.1 µM
--
compound: Fc1cc(Nc2nc(NC3[C@H]4COC[C@@H]34)nc(-c3ccccc3F)n2)ccn1 (some centres unmarked)
outcome measure: IC50
result: < 0.1 µM
--
compound: Fc1cncc(Nc2nc(NC3CCC3)nc(-c3ccccc3F)n2)c1
outcome measure: IC50
result: < 0.1 µM
--
compound: CC(C)Nc1nc(Nc2cc(F)cc(F)c2)nc(-c2cccc(C(F)(F)F)n2)n1
outcome measure: IC50
result: < 0.1 µM
--
compound: CC(C)(O)CNc1nc(Nc2ccc(F)nc2)nc(-c2cccc(Cl)n2)n1
outcome measure: IC50
result: 0.1 to 1 µM
--
compound: CC(C)Nc1nc(Nc2ccnc(Cl)c2)nc(-c2cccc(C(F)(F)F)n2)n1
outcome measure: IC50
result: < 0.1 µM
--
compound: CC(C)(O)CNc1nc(Nc2cncc(F)c2)nc(-c2cccc(Cl)n2)n1
outcome measure: IC50
result: 0.1 to 1 µM

Look up and report measured IC50 (U87MG pLVX-IDH2 R140Q-neo cells) for the following compound: CC(C)Nc1nc(Nc2ccnc(C(C)(F)F)c2)nc(-c2cccc(N)n2)n1
< 0.1 µM

Lab note: U87MG pLVX-IDH2 R140Q-neo cells assay, enter IC50 for CC(C)Nc1nc(Nc2cncnc2)nc(-c2ccccc2)n1 here
0.1 to 1 µM

Using U87MG pLVX-IDH2 R140Q-neo cells as the test system, report measured IC50 of CC(CO)Nc1nc(Nc2ccnc(C(F)(F)F)c2)nc(-c2cccc(C(F)(F)F)n2)n1 (centres unmarked) .
< 0.1 µM

Fill: IC50 (U87MG pLVX-IDH2 R140Q-neo cells) for this compound CC(C)Nc1nc(Nc2ccnc(C#N)c2)nc(-c2cccc(Cl)n2)n1
< 0.1 µM
